Source listed as ChEMBL document CHEMBL5042509.

# System: Trypanosoma congolense
# ASSAY_SUMMARY: Trypanocidal activity against Trypanosoma congolense IL3000 assessed as parasite growth inhibition at 50 ug/ml incubated for 3 days by Celltiter-Glo luminescence assay
# Parameters: scale not given: the % may be the effect or the level left
# SETTINGS: dose 50 µg/ml; time 3 day
QUANTITY_MEASURED: Activity
Kindly report the value followed by its unit.

Exercise: Using the record for Oc1ccc2c(c1)O[C@H](c1cc(O)c(O)c(O)c1)[C@@H](O)[C@H]2c1c(O)cc(O)c2c1O[C@H](c1ccc(O)c(O)c1)[C@H](O)C2 , report its Activity.
Solution: 100.13%

Exercise: Can you look up the measured Activity of Oc1ccc2c(c1)O[C@H](c1ccc(O)c(O)c1)[C@@H](O)[C@H]2c1c(O)cc(O)c2c1O[C@H](c1cc(O)c(O)c(O)c1)[C@H](O)C2 for me?
Solution: 99.96%

Exercise: Value lookup for Activity; key = COc1ccc(O[C@@H]2O[C@H](CO)[C@@H](O)[C@H](O)[C@H]2O[C@@H]2OC[C@](O)(CO)[C@H]2O)cc1OC
Solution: 0%

Exercise: Sample Oc1ccc([C@H]2Oc3cc(O)ccc3[C@H](c3c(O)cc(O)c4c3O[C@H](c3cc(O)c(O)c(O)c3)[C@H](O)C4)[C@@H]2O)cc1 — what was its Activity?
Solution: 99.67%

Exercise: Query: Activity; subject: Oc1cc(O)c2c(c1)O[C@H](c1ccc(O)c(O)c1)[C@H](O)C2 [(-)-EPICATECHIN]
Solution: 13.33%

Exercise: Consider the compound COc1cc(O[C@@H]2O[C@H](CO)[C@@H](O)[C@H](O)[C@H]2O[C@@H]2O[C@@H](C)[C@H](OC(C)=O)[C@@H](OC(C)=O)[C@H]2OC(C)=O)cc(OC)c1OC and give its measured Activity.
Solution: 91.43%

Exercise: // returns reported Activity for input Oc1ccc([C@H]2Oc3cc(O)ccc3[C@@H](c3c(O)cc(O)c4c3O[C@H](c3cc(O)c(O)c(O)c3)[C@H](O)C4)[C@@H]2O)cc1
Solution: 69.89%

* * *

# System: Trypanosoma brucei rhodesiense
# ASSAY_SUMMARY: Trypanocidal activity against Trypanosoma brucei rhodesiense IL1501 assessed as parasite growth inhibition at 50 ug/ml incubated for 3 days by Celltiter-Glo luminescence assay
# Type: functional
# Set-up: scale not given: the % may be the effect or the level left
# SETTINGS: dose 50 µg/ml; time 3 day
Recorded Activity, one value per entry.
Report as a plain number; the unit % is understood.

Exercise: // Activity lookup, key: Oc1cc(O)c2c(c1)O[C@H](c1ccc(O)c(O)c1)[C@@H](O)C2
Solution: 2.35

Exercise: Any idea what Activity was measured for Oc1ccc([C@H]2Oc3cc(O)cc(O)c3C[C@@H]2O)cc1 ?
Solution: 96.07

Exercise: Please give the measured Activity for this compound: COc1cc(O[C@@H]2O[C@H](CO)[C@@H](O)[C@H](O)[C@H]2O[C@@H]2OC[C@](O)(CO)[C@H]2O)cc(OC)c1OC
Solution: 0.73

Exercise: Quick one: Activity of COc1cc(O[C@@H]2O[C@H](CO)[C@@H](O)[C@H](O)[C@H]2O[C@@H]2O[C@@H](C)[C@H](OC(C)=O)[C@@H](OC(C)=O)[C@H]2OC(C)=O)cc(OC)c1OC ?
Solution: 27.17

* * *

# System: Trypanosoma brucei rhodesiense
# ASSAY_SUMMARY: Trypanocidal activity against Trypanosoma brucei rhodesiense IL1501 assessed as parasite growth inhibition at 50 ug/ml incubated for 3 days by Celltiter-Glo luminescence assay
# Format: functional
# Set-up: scale not given: the % may be the effect or the level left
# SETTINGS: dose 50 µg/ml; time 3 day
QUANTITY_MEASURED: Activity (%)
API: value field is a number in %; no unit string.

Observe how each entry below is paired with its result.
| SMILES | STUDY_SYSTEM | Activity (%) |
| --- | --- | --- |
| COc1ccc(O[C@@H]2O[C@H](CO)[C@@H](O)[C@H](O)[C@H]2O[C@@H]2OC[C@](O)(CO)[C@H]2O)cc1OC | Trypanosoma brucei rhodesiense | 0 |
| Cc1cc(O[C@@H]2O[C@H](CO)[C@@H](O)[C@H](O)[C@H]2O)c(C(=O)c2c(O)cccc2O)c(C(=O)O)c1 | Trypanosoma brucei rhodesiense | 3.46 |
| Oc1ccc([C@H]2Oc3cc(O)ccc3[C@@H](c3c(O)cc(O)c4c3O[C@H](c3cc(O)c(O)c(O)c3)[C@H](O)C4)[C@@H]2O)cc1 | Trypanosoma brucei rhodesiense | 57.75 |
| Oc1ccc2c(c1)O[C@H](c1ccc(O)c(O)c1)[C@@H](O)[C@H]2c1c(O)cc(O)c2c1O[C@H](c1ccc(O)c(O)c1)[C@H](O)C2 | Trypanosoma brucei rhodesiense | 19.57 |

Exercise: Dear colleague, I am looking for the recorded Activity of the following molecule: Oc1ccc2c(c1)O[C@H](c1ccc(O)c(O)c1)[C@@H](O)[C@@H]2c1c(O)cc(O)c2c1O[C@H](c1cc(O)c(O)c(O)c1)[C@H](O)C2
Solution: 24.11

Exercise: Given Oc1ccc([C@H]2Oc3cc(O)ccc3[C@@H](c3c(O)cc(O)c4c3O[C@H](c3cc(O)c(O)c(O)c3)[C@@H](O)C4)[C@@H]2O)cc1 , state its recorded Activity.
Solution: 20.49

* * *

# Activity per record follows
# Test system: Trypanosoma brucei rhodesiense
# ASSAY_SUMMARY: Trypanocidal activity against Trypanosoma brucei rhodesiense IL1501 assessed as parasite growth inhibition at 50 ug/ml incubated for 3 days by Celltiter-Glo luminescence assay
# Format: functional
# Set-up: scale not given: the % may be the effect or the level left
# SETTINGS: dose 50 µg/ml; time 3 day
Give just the number in %; leave the unit off.

Exercise: Fill in the blank: the reported Activity of COc1cc(C(=O)O)cc(OC)c1O[C@@H]1O[C@H](CO)[C@@H](O)[C@H](O)[C@H]1O is ____.
Solution: 20.63

* * *

# Tested on: Trypanosoma congolense
# ASSAY_SUMMARY: Trypanocidal activity against Trypanosoma congolense IL3000 assessed as parasite growth inhibition at 50 ug/ml incubated for 3 days by Celltiter-Glo luminescence assay
# Set-up: scale not given: the % may be the effect or the level left
# SETTINGS: dose 50 µg/ml; time 3 day
List of Activity values.
Report the figure in % without appending any unit label.

| COMPOUND | Activity / % |
| --- | --- |
| Oc1ccc2c(c1)O[C@H](c1ccc(O)c(O)c1)[C@@H](O)[C@@H]2c1c(O)cc(O)c2c1O[C@H](c1cc(O)c(O)c(O)c1)[C@H](O)C2 | 72.01 |
| Oc1cc(O)c2c(c1)O[C@H](c1ccc(O)c(O)c1)[C@@H](O)C2 | 22.03 |
| COc1cc(O)cc(OC)c1OC [ANTIAROL] | 1.68 |

Exercise: Could you share what Activity was measured for Oc1ccc2c(c1)O[C@H](c1ccc(O)c(O)c1)[C@@H](O)[C@@H]2c1c(O)cc(O)c2c1O[C@H](c1ccc(O)c(O)c1)[C@@H](O)C2 , tested on Trypanosoma congolense?
Solution: 36.23

Exercise: Param readout = Activity; param system = Trypanosoma congolense; param query = Cc1cc(O)c(C(=O)c2c(O)cccc2O[C@@H]2O[C@H](CO)[C@@H](O)[C@H](O)[C@H]2O)c(C(=O)O)c1 ; response: value
Solution: 20.76

Exercise: Recall the recorded Activity for Oc1cc(O)c2c(c1)O[C@H](c1cc(O)c(O)c(O)c1)[C@H](O)C2 [EPIGALLOCATECHIN] with Trypanosoma congolense and state it.
Solution: 99.94

Exercise: What is its Activity for Trypanosoma congolense? Entry: Oc1ccc([C@H]2Oc3cc(O)cc(O)c3C[C@@H]2O)cc1
Solution: 99.57

Exercise: API: value(readout= Activity, system= Trypanosoma congolense, query= Oc1ccc([C@H]2Oc3c(c(O)cc(O)c3[C@@H]3c4ccc(O)cc4O[C@H](c4ccc(O)c(O)c4)[C@H]3O)C[C@H]2O)cc1 )
Solution: 33.1

Exercise: Value wanted: Activity (Trypanosoma congolense) of entry Oc1ccc([C@H]2Oc3cc(O)ccc3[C@@H](c3c(O)cc(O)c4c3O[C@H](c3ccc(O)c(O)c3)[C@@H](O)C4)[C@@H]2O)cc1
Solution: 20.82

Exercise: Lab request: please report Activity under test system Trypanosoma congolense for COc1cc(O[C@@H]2O[C@H](CO)[C@@H](O)[C@H](O)[C@H]2O[C@@H]2O[C@@H](C)[C@H](O)[C@@H](O)[C@H]2O)cc(OC)c1OC
Solution: 0

Exercise: Item COc1cc(O[C@@H]2O[C@H](CO)[C@@H](O)[C@H](O)[C@H]2O[C@@H]2OC[C@](O)(CO)[C@H]2O)cc(OC)c1OC with Trypanosoma congolense - Activity?
Solution: 0

Exercise: Tell me reported Activity for COc1cc(C(=O)O)cc(OC)c1O[C@@H]1O[C@H](CO)[C@@H](O)[C@H](O)[C@H]1O , tested with Trypanosoma congolense.
Solution: 0

Exercise: Query for Trypanosoma congolense: what Activity does the record show for COc1ccc(O[C@@H]2O[C@H](CO)[C@@H](O)[C@H](O)[C@H]2O)cc1OC ?
Solution: 0
